Target: CYP2B6 (Homo sapiens, UniProt P20813)
Sequence (P20813 1-491): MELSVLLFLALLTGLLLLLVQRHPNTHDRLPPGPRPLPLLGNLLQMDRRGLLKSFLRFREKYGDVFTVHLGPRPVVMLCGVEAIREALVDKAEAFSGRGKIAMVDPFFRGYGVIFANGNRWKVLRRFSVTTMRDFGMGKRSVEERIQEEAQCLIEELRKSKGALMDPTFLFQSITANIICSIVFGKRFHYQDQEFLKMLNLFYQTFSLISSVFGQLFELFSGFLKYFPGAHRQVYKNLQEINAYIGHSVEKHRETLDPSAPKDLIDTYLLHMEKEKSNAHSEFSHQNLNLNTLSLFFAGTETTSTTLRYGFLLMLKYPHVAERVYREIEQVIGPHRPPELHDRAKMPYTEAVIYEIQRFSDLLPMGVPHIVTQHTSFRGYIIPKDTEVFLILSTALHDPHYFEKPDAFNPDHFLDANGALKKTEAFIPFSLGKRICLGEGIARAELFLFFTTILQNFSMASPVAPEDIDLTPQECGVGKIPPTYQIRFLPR
Test: CYP enzyme inhibition in pooled human liver microsomes, CYP2B6
Details: human, microsomes, Enzyme activity (% inhibition), No Pre-incubation, CYP2B6; 30 μM; probe Efavirenz; PHLM
METRIC NAME: inhibition at 30 µM (%)

>  <MOLECULE>
COC[C@H](NC(=O)c1ccn(S(C)(=O)=O)c1)C(=O)Nc1nc(-c2cccc(N3C[C@@H](C)O[C@@H](C)C3)n2)cs1 [compound of formula (I)]

>  <TARGET DESC>
CYP2B6 (Homo sapiens, UniProt P20813)

>  <ENDPOINT VALUE>
7.6

$$$$
